# Tested on: MOA
# Assay remarks: Sugar ligand binding to MOA (hemagglutination inhibition, hapten inhibition of precipitation, calorimetry)
# Parameters: species or system Marasmius oreades
# Condition info: binding to MOA in solution
Metric: ligand binding

1) CC(=O)N[C@H]1C(O)O[C@H](CO)[C@@H](O[C@@H]2O[C@H](CO)[C@H](O)[C@H](O)[C@H]2O)[C@@H]1O (some centres unmarked) [LacNAc, N-acetyllactosamine] ... very poor ligands
2) OC[C@H]1O[C@@H](O[C@H]2[C@H](O)[C@@H](O)C(O)O[C@@H]2CO)[C@H](O)[C@@H](O)[C@H]1O (some centres unmarked) [Lactose] ... very poor ligands
3) OC[C@H]1O[C@H](OCC2O[C@@H](O)[C@H](O)[C@@H](O)[C@@H]2O)[C@H](O)[C@@H](O)[C@H]1O (stereo partly drawn) [melibiose, Ga1α1,6G1c] ... very poor ligands
